Let's look at some compounds and their measured A549-pERK 10 uM, 2 h.
# Test system: phospho-ERK in A549 (KRAS G12S) cells
# assay notes: Cell-based pERK (pERK:tERK) in A549 cells
# Set-up: unit not given here
# test parameters: 10 uM, 2 h; phospho- to total protein ratio normalized to DMSO control

>>> reported("CNS(=O)(=O)Nc1cccc(Cc2c(CNC(N)=O)c3ccc(OC(=O)N(C)C)cc3oc2=O)c1F [Compound 105]")
7.39
>>> reported("CNS(=O)(=O)Nc1cccc(Cc2c(CNC(=O)OCCO)c3ccc(OC(=O)N(C)C)cc3oc2=O)c1F [Compound 106]")
27.88
>>> reported("CNS(=O)(=O)Nc1cccc(Cc2c(CN(C)C)c3ccc(OC(=O)N(C)C)cc3oc2=O)c1F [Compound 9]")
"1.205 (mean, n = 2)"
>>> reported("CNS(=O)(=O)Nc1cccc(Cc2c(CN3CCOCC3=O)c3ccc(OC(=O)N(C)C)cc3oc2=O)c1F [Compound 181]")
22.23
>>> reported("CNS(=O)(=O)Nc1cccc(Cc2c(CNCC(=O)N(C)CC#N)c3ccc(OC(=O)N(C)C)cc3oc2=O)c1F [Compound 217]")
11.2
>>> reported("CNS(=O)(=O)Nc1cccc(Cc2c(CNC(=O)C(C)C)c3ccc(OC(=O)N(C)C)cc3oc2=O)c1F [Compound 208]")
23.64
>>> reported("CNS(=O)(=O)Nc1cccc(Cc2c(CNCC(=O)N(C)c3ccccc3)c3ccc(OC(=O)N(C)C)cc3oc2=O)c1F [Compound 220]")
4.28
>>> reported("CNS(=O)(=O)Nc1cccc(Cc2c(CCNCC3CC3)c3ccc(OC(=O)N(C)C)cc3oc2=O)c1F [Compound 186]")
0.74

Simply: CNS(=O)(=O)Nc1cccc(Cc2c(CNCC(=O)O)c3cc(Cl)c(OC(=O)N(C)C)cc3oc2=O)c1F [Compound 133] , phospho-ERK in A549 (KRAS G12S) cells, A549-pERK 10 uM, 2 h = 23.41

Simply: CCC(=O)NCc1c(Cc2cccc(NS(=O)(=O)NC)c2F)c(=O)oc2cc(OC(=O)N(C)C)ccc12 [Compound 207] , phospho-ERK in A549 (KRAS G12S) cells, A549-pERK 10 uM, 2 h = 11.35

Simply: CNS(=O)(=O)Nc1cccc(Cc2c(CNCC(=O)Nc3ccccc3)c3ccc(OC(=O)N(C)C)cc3oc2=O)c1F [Compound 223] , phospho-ERK in A549 (KRAS G12S) cells, A549-pERK 10 uM, 2 h = 3.04

Simply: CNS(=O)(=O)Nc1cccc(Cc2c(CNCC(=O)N(C)C)c3ccc(OC(=O)N(C)C)cc3oc2=O)c1F [Compound 57] , phospho-ERK in A549 (KRAS G12S) cells, A549-pERK 10 uM, 2 h = 7.33

Simply: CNS(=O)(=O)Nc1cccc(Cc2c(CNCC(=O)N3CCNCC3)c3ccc(OC(=O)N(C)C)cc3oc2=O)c1F [Compound 191] , phospho-ERK in A549 (KRAS G12S) cells, A549-pERK 10 uM, 2 h = 8.6

Simply: C#CCNC(=O)CNCc1c(Cc2cccc(NS(=O)(=O)NC)c2F)c(=O)oc2cc(OC(=O)N(C)C)ccc12 [Compound 218] , phospho-ERK in A549 (KRAS G12S) cells, A549-pERK 10 uM, 2 h = 9.46

###

Let's look at some compounds and their measured T1/2.
# assay notes: Plasma stability, mouse plasma (Balb/c; Table 5 head CD-1 Mouse)
# Assay type: in vitro ADME
# test parameters: balb/c plasma, 2 μM, anti-coagulant K2-EDTA
Express the result in min but write the number alone.

>>> reported("CCS(=O)(=O)Nc1cccc(Cc2c(CN(C)C)c3ccc(OC(=O)N(C)C)cc3oc2=O)c1F")
14321
>>> reported("CNS(=O)(=O)Nc1cccc(Cc2c(CN(C)C)c3ccc(OC(=O)N(C)C)cc3oc2=O)c1F")
527

Next item in the queue.
Please fill in: T1/2 reported for `CNS(=O)(=O)Nc1cccc(Cc2c(CN3CCNCC3)c3cc(F)c(OC(=O)N(C)C)cc3oc2=O)c1F` = 2811

###

# test target: CYP2C8 (Homo sapiens, UniProt P10632)
# Sequence (P10632 whole entry): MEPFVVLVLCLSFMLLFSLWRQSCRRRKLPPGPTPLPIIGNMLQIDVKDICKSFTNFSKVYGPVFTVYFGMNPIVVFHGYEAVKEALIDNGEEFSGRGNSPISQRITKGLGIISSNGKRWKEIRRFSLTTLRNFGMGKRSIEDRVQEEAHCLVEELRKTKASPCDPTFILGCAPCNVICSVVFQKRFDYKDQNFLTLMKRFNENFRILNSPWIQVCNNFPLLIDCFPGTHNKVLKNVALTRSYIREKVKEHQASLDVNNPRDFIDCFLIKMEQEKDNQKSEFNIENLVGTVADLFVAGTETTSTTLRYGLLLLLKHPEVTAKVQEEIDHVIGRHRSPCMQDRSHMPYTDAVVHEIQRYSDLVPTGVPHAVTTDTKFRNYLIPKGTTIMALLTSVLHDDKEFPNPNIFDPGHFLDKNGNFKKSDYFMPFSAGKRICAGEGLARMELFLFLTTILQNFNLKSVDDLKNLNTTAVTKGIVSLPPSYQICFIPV
# assay notes: in vitro
# test parameters: microsomes, pH 7.4
Where a name gives a salt, the structure may show the parent alone.
endpoint name: inhibition at 30 min, 10 µM

Example compounds with recorded inhibition at 30 min, 10 µM:
>>> reported("CCS(=O)(=O)Nc1cccc(Cc2c(CN3CCNCC3)c3cc(Cl)c(OC(=O)N(C)C)cc3oc2=O)c1Cl [Compound 257, hydrochloride]")
"97.5%"
>>> reported("CNS(=O)(=O)Nc1cccc(Cc2c(CN3CCNCC3)c3ccc(OC(=O)N(C)C)cc3oc2=O)c1Cl [Compound 246, hydrochloride]")
"10.5%"
>>> reported("CNS(=O)(=O)Nc1cccc(Cc2c(CN3CCNCC3)c3cc(Cl)c(OC(=O)N(C)C)cc3oc2=O)c1Cl [Compound 256, hydrochloride]")
"97%"
>>> reported("CNS(=O)(=O)Nc1cccc(Cc2c(CN(C)C)c3ccc(OC(=O)N(C)C)cc3oc2=O)c1Cl [Compound 274]")
"11.9%"

Next item in the queue.
Please fill in: inhibition at 30 min, 10 µM reported for CCN(C)Cc1c(Cc2cccc(NS(=O)(=O)NC)c2Cl)c(=O)oc2cc(OC(=O)N(C)C)ccc12 [Compound 245] = 30.4%

###

# Test system: phospho-ERK in A549 (KRAS G12S) cells
# assay notes: Cell-based pERK (pERK:tERK) in A549 cells
# test parameters: Phospho-ERK Screen in A549 (KRAS G12S); head 10 nM 2 h, title 10 μM for 2 hours
# Procedure: Media components, reagents and buffers for Western Blot: All cell culture media components were obtained from ThermoFisher Scientific. […] Laemmli sample loading 4× buffer (ThermoFisher Scientific, Cat No. NP0007). […] Materials and Methods: A549 or A375 cells were seeded in 6-well plates at an appropriate seeding density on day 0. […] Protein concentration of the lysate was determined using Bradford Reagent (analyzed using SpectraMax M2E) and diluted to 1 mg/mL or pERK or 1.5 mg/mL for pMEK analysis. […]
Where a name gives a salt, the structure may show the parent alone.
endpoint name: pERK:tERK (10 nM 2 h A549)
Give the value as a plain number.

Example compounds with recorded pERK:tERK (10 nM 2 h A549):
>>> reported("CCS(=O)(=O)Nc1cccc(Cc2c(CN3CCNCC3)c3cc(Cl)c(OC(=O)N(C)C)cc3oc2=O)c1Cl [Compound 257, hydrochloride]")
17
>>> reported("CCN(C)Cc1c(Cc2cccc(NS(=O)(=O)NC)c2Cl)c(=O)oc2cc(OC(=O)N(C)C)ccc12 [Compound 245]")
69
>>> reported("CNS(=O)(=O)Nc1cccc(Cc2c(CN3CCNCC3)c3cc(Cl)c(OC(=O)N(C)C)cc3oc2=O)c1Cl [Compound 256, hydrochloride]")
14
>>> reported("CCS(=O)(=O)Nc1cccc(Cc2c(CN3CCNCC3)c3cc(F)c(OC(=O)N(C)C)cc3oc2=O)c1Cl [Compound 255]")
37

Next item in the queue.
Please fill in: pERK:tERK (10 nM 2 h A549) reported for CNS(=O)(=O)Nc1cccc(Cc2c(CN3CCNCC3)c3cc(F)c(OC(=O)N(C)C)cc3oc2=O)c1Cl [Compound 254] = 27

###

# Test system: phospho-MEK in A549 cells
# assay notes: Cell-based pMEK (pMEK:tMEK, CRAF bypass) in A549 cells
# test parameters: 2 h, pMEK to total MEK normalized to DMSO control
endpoint name: A549-CRAF BP 100 nM, 2 h
Give the value as a plain number.

Example molecules with recorded A549-CRAF BP 100 nM, 2 h:
>>> reported("CNS(=O)(=O)Nc1cccc(Cc2c(CN(C)C)c3cc(F)c(OC(=O)N(C)C)cc3oc2=O)c1F")
71
>>> reported("CNS(=O)(=O)Nc1cccc(Cc2c(CN(C)Cc3ccccc3)c3ccc(OC(=O)N(C)C)cc3oc2=O)c1F")
56.1
>>> reported("Cc1c(Cc2ccnc(NS(=O)(=O)C3CCC3)c2F)c(=O)oc2cc(OC(=O)N(C)C)ccc12")
41.7
>>> reported("CNS(=O)(=O)Nc1cccc(Cc2c(CN3CCC3)c3cc(Cl)c(OC(=O)N(C)C)cc3oc2=O)c1F")
51.9

Please fill in: A549-CRAF BP 100 nM, 2 h reported for `CCS(=O)(=O)Nc1cccc(Cc2c(CN(C)C)c3cc(Cl)c(OC(=O)N(C)C)cc3oc2=O)c1F` = 57.8

Please fill in: A549-CRAF BP 100 nM, 2 h reported for `CNS(=O)(=O)Nc1cccc(Cc2c(CN(C)C3CC3)c3ccc(OC(=O)N(C)C)cc3oc2=O)c1F` = 72.3

Please fill in: A549-CRAF BP 100 nM, 2 h reported for `CNS(=O)(=O)Nc1cccc(Cc2c(CN3CC4(CCC4)C3)c3ccc(OC(=O)N(C)C)cc3oc2=O)c1F` = 54.1
